# tested-system: T1, ZFP SBS#832 (synthetic)
# T1 chain: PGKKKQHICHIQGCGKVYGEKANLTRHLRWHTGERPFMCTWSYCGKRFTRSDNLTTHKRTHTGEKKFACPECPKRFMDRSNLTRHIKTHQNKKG
# protocol-summary: EMSA
# measurement-context: tags: MBP fusion
attribute-measured: Kd (nM)
Give the quantity in nM, number only.

Please give the measured Kd for this binder: GACTAGGACC (dsDNA) DNA 1: GACTAGGACC DNA 2: GGTCCTAGTC
408
